biological target: Rho-A (Homo sapiens); assay: MicroScale Thermophoresis (MST), GTP affinity; format: binding
pKd: −log10 of the molar value.
measure: pKd

molecule: Nc1nc2c(ncn2[C@@H]2O[C@H](COP(=O)(O)OP(=O)(O)OP(=O)(O)O)[C@@H](O)[C@H]2O)c(=O)[nH]1 [GTP]
observed result: 6.89

====

Biological target: KRas G12D mutant (Homo sapiens, UniProt P01116, G12D)
Construct: fused on or other part: His tag, used for capture on nickel-coated plates
Assay: Ras GTP binding domain inhibition assay (Cy3-GTP/Cy5-GTP competition)
Details: at 20 μM, with SOS; read-out: KRas G12D mutant + SOS: % inh.
From the text: The following method was developed as specific assay for the following proteins: KRas wild type, KRas Q61H mutant, KRas G12C mutant, KRas G12D mutant, HRas wild type, Rac-1, and Rho-A. […] The small GTPases proteins: KRas wild type. KRas Q61H mutant, KRas G12C mutant, KRas G12D mutants, HRas wild type, Rac-1, and Rho-A were expressed as His-tagged proteins. In addition, the Guanosine nucleotide Exchange Factor (GEF) Sos protein (residues 556-1049) was expressed as a His-tagged protein. […]

compound: CO[C@H]1CC[C@@H](Nc2nc(-c3nccn3C)nc3sc(-c4ccn(C)n4)c(C)c23)C1 [drawing 1050]
tgt: KRas G12D mutant (Homo sapiens, UniProt P01116, G12D)
inhibition at 20 µM: 51 to 75%

compound: COC1CCN(c2nc(-c3nccn3C)nc3sc(-c4ccncc4C)c(-c4ccccc4)c23)C1 (stereo not shown) [drawing 955]
tgt: KRas G12D mutant (Homo sapiens, UniProt P01116, G12D)
inhibition at 20 µM: 26 to 50%

compound: COC1CCN(c2nc(-c3nccn3C)nc3sc(-c4cnn(C)c4)c(-c4ccccc4)c23)C1 (stereo not shown) [drawing 970]
tgt: KRas G12D mutant (Homo sapiens, UniProt P01116, G12D)
inhibition at 20 µM: 76 to 100%

compound: COc1ccc(-c2sc3nc(-c4nccn4C)nc(N4CCC(OC)C4)c3c2-c2ccccc2)cn1 (stereo not shown) [drawing 971]
tgt: KRas G12D mutant (Homo sapiens, UniProt P01116, G12D)
inhibition at 20 µM: 51 to 75%

compound: COCCCNc1nc(-c2nccn2C)nc2sc(-c3ccn(C)n3)c(-c3ccccc3)c12 [drawing 1001]
tgt: KRas G12D mutant (Homo sapiens, UniProt P01116, G12D)
inhibition at 20 µM: 26 to 50%

compound: COCCNC(=O)c1sc2nc(-c3nccn3C)nc(N[C@@H]3CC[C@H](OC)C3)c2c1-c1ccccc1 [drawing 1060]
tgt: KRas G12D mutant (Homo sapiens, UniProt P01116, G12D)
inhibition at 20 µM: 76 to 100%

compound: COCCn1ccnc1-c1nc(O)c2scc(-c3ccccn3)c2n1 [drawing 987]
tgt: KRas G12D mutant (Homo sapiens, UniProt P01116, G12D)
inhibition at 20 µM: 51 to 75%

compound: Cn1ccc(-c2sc3nc(-c4nccn4C)nc(NC4CCOCC4)c3c2-c2ccccc2)n1 [drawing 997]
tgt: KRas G12D mutant (Homo sapiens, UniProt P01116, G12D)
inhibition at 20 µM: 1 to 25%

compound: COc1nc(-c2ccccn2)nc2c(-c3ccccn3)csc12 [drawing 1048]
tgt: KRas G12D mutant (Homo sapiens, UniProt P01116, G12D)
inhibition at 20 µM: 1 to 25%

compound: CO[C@H]1C[C@@H](Nc2nc(-c3ncc[nH]3)nc3sc(-c4ccn(C)n4)c(-c4ccccc4)c23)C1 [drawing 1045]
tgt: KRas G12D mutant (Homo sapiens, UniProt P01116, G12D)
inhibition at 20 µM: 26 to 50%

compound: CCn1cc(Nc2nc(-c3ccccn3)nc(O)c2OC)cn1 [drawing 1016]
tgt: KRas G12D mutant (Homo sapiens, UniProt P01116, G12D)
inhibition at 20 µM: 26 to 50%

compound: COCCNc1nc(-c2nccn2C)nc2sc(-c3cccc(OC)c3Cl)c(-c3ccccc3)c12 [drawing 1007]
tgt: KRas G12D mutant (Homo sapiens, UniProt P01116, G12D)
inhibition at 20 µM: 76 to 100%

compound: COCCCN(C)c1nc(-c2nccn2C)nc2sc(-c3ccn(C)n3)c(-c3ccccc3)c12 [drawing 1000]
tgt: KRas G12D mutant (Homo sapiens, UniProt P01116, G12D)
inhibition at 20 µM: 26 to 50%

compound: Cc1cc(Cn2ccnc2-c2nc(O)c3scc(-c4ccccn4)c3n2)on1 [drawing 981]
tgt: KRas G12D mutant (Homo sapiens, UniProt P01116, G12D)
inhibition at 20 µM: 26 to 50%

compound: CO[C@H]1C[C@@H](Nc2nc(-c3nccn3C)nc3sc(-c4ccn(C)n4)c(C)c23)C1 [drawing 1049]
tgt: KRas G12D mutant (Homo sapiens, UniProt P01116, G12D)
inhibition at 20 µM: 51 to 75%

compound: COc1cccc(-c2sc3nc(-c4nccn4C)nc(NC4CCC(OC)C4)c3c2C)c1F (stereo not shown) [drawing 1028]
tgt: KRas G12D mutant (Homo sapiens, UniProt P01116, G12D)
inhibition at 20 µM: 51 to 75%

====

tested on: KRas wild type; experiment: Ras GTP binding domain inhibition assay (Cy3-GTP/Cy5-GTP competition); design: species or system human; conditions: 20 μM; with SOS
measure: KRas wild type + SOS: % inh.

compound: COCCNc1nc(-c2nccn2C)nc2sc(-c3cccc(OC)c3Cl)c(-c3ccccc3)c12 [drawing 872]
observed result: D (76-100% inhibition)

compound: COCCNc1nc(-c2cn(C)cn2)nc2sc(-c3cc(OC)ccc3Cl)c(-c3ccc(OC)cc3)c12 [drawing 795]
observed result: D (76-100% inhibition)

====

Reported inhibition at 20 µM values are given for each entry in this list.
biological target: KRas G12D mutant (Homo sapiens, UniProt P01116, G12D); construct: fused on or other part: His tag, used for capture on nickel-coated plates; assay: Ras GTP binding domain inhibition assay (Cy3-GTP/Cy5-GTP competition); settings: at 20 μM, with SOS; read-out: KRas G12D mutant + SOS: % inh.

molecule: COc1cccc(-c2sc3nc(-c4nccn4C)nc(N[C@@H]4CC[C@H](C=O)C4)c3c2-c2ccccc2)c1F (racemic)
tgt: KRas G12D mutant (Homo sapiens, UniProt P01116, G12D)
inhibition at 20 µM: 51 to 75%
--
molecule: CCOc1cccc(Nc2nc(-c3ccccn3)nc(O)c2OC)c1 [drawing 1017]
tgt: KRas G12D mutant (Homo sapiens, UniProt P01116, G12D)
inhibition at 20 µM: 26 to 50%
--
molecule: COCCN(C)C(=O)c1nc(-c2ccccn2)nc(O)c1O [drawing 945]
tgt: KRas G12D mutant (Homo sapiens, UniProt P01116, G12D)
inhibition at 20 µM: 1 to 25%
--
molecule: CO[C@H]1C[C@@H](Nc2nc(-c3nccn3C)nc3sccc23)C1 [drawing 1038]
tgt: KRas G12D mutant (Homo sapiens, UniProt P01116, G12D)
inhibition at 20 µM: 76 to 100%
--
molecule: O=C(NCc1ccccc1)c1nc(-c2ccccn2)nc(O)c1O [drawing 956]
tgt: KRas G12D mutant (Homo sapiens, UniProt P01116, G12D)
inhibition at 20 µM: 51 to 75%

====

Reported inhibition at 20 µM values are given for each entry in this list.
target: Rho-A (Homo sapiens, UniProt P61586); experiment: Ras GTP binding domain inhibition assay (Cy3-GTP/Cy5-GTP competition); conditions: without SOS, read-out: Rho-A: % inh.

molecule: COc1c(O)nc(-c2ccccn2)nc1Oc1ccc2ncccc2c1 [drawing 939]
inhibition at 20 µM: 76 to 100%
--
molecule: CO[C@H]1CC[C@@H](Nc2nc(-c3nccn3C)nc3sc(-c4ccn(C)n4)c(C)c23)C1 [drawing 1050]
inhibition at 20 µM: 76 to 100%
--
molecule: CO[C@H]1CC[C@@H](Nc2nc(-c3nccn3C)nc(C(=O)N3CCc4c(O)cccc4C3)c2C)C1 [drawing 1036]
inhibition at 20 µM: 51 to 75%
--
molecule: COCC1CN(c2nc(-c3nccn3C)nc3sc(-c4cccc(OC)c4F)c(-c4ccc(OC)cc4)c23)C1 [drawing 940]
inhibition at 20 µM: 51 to 75%
--
molecule: COCCCNc1nc(-c2nccn2C)nc2sc(-c3ccn(C)n3)c(-c3ccc(OC)cc3)c12 [drawing 1005]
inhibition at 20 µM: 1 to 25%
--
molecule: COc1c(F)cccc1-c1sc2nc(-c3nccn3C)nc(NC3CCC(OC)C3)c2c1-c1ccccc1 (centres unmarked) [drawing 1021]
inhibition at 20 µM: 26 to 50%
--
molecule: COC1CCN(c2nc(-c3nccn3C)nc3sc(-c4ccn(C)n4)c(-c4ccccc4)c23)CC1 [drawing 991]
inhibition at 20 µM: 0%
--
molecule: COC1CCN(c2nc(-c3nccn3C)nc3sc(-c4ccn(C)n4)c(-c4ccccc4)c23)C1 (centres unmarked) [drawing 998]
inhibition at 20 µM: 0%
--
molecule: COC1CCN(c2nc(-c3nccn3C)nc3sc(-c4ccncc4C)c(-c4ccccc4)c23)C1 (centres unmarked) [drawing 955]
inhibition at 20 µM: 51 to 75%
--
molecule: COc1cc(-c2sc3nc(-c4nccn4C)nc(N4CCC(OC)C4)c3c2-c2ccccc2)ccn1 (centres unmarked) [drawing 980]
inhibition at 20 µM: 1 to 25%
--
molecule: COc1cccc(Cn2ccnc2-c2nc(O)c3scc(-c4ccccn4)c3n2)c1 [drawing 985]
inhibition at 20 µM: 26 to 50%
--
molecule: COC1CCN(c2nc(-c3nccn3C)nc3sc(-c4cnn(C)c4)c(-c4ccccc4)c23)C1 (centres unmarked) [drawing 970]
inhibition at 20 µM: 26 to 50%
--
molecule: COc1ccc(Oc2nc(-c3ccccn3)nc(O)c2OC)cc1 [drawing 950]
inhibition at 20 µM: 51 to 75%
--
molecule: COc1cccc(-c2sc3nc(-c4nccn4C)nc(N4CCC(OC)C4)c3c2-c2cscn2)c1 (centres unmarked) [drawing 1002]
inhibition at 20 µM: 0%
--
molecule: CCn1cc(Nc2nc(-c3ccccn3)nc(O)c2OC)cn1 [drawing 1016]
inhibition at 20 µM: 51 to 75%
--
molecule: COC(=O)c1nc(-c2nccn2C)nc(O)c1O [drawing 959]
inhibition at 20 µM: 1 to 25%
--
molecule: Cc1cnc(-c2nc(O)c3scc(-c4ccccn4)c3n2)n1C [drawing 943]
inhibition at 20 µM: 51 to 75%
--
molecule: COCC(C)Nc1nc(-c2nccn2C)nc2sc(-c3ccccc3Cl)c(-c3cscn3)c12 (centres unmarked) [drawing 989]
inhibition at 20 µM: 26 to 50%
--
molecule: COc1ccc(-c2c(-c3ccn(C)n3)sc3nc(-c4nccn4C)nc(N4CCC(OC)C4)c23)cc1 (centres unmarked) [drawing 1003]
inhibition at 20 µM: 0%
--
molecule: COCCNC(=O)c1sc2nc(-c3nccn3C)nc(N[C@@H]3CC[C@H](OC)C3)c2c1-c1ccccc1 [drawing 1060]
inhibition at 20 µM: 76 to 100%
--
molecule: CO[C@H]1C[C@@H](Nc2nc(-c3nccn3C)nc3sc(C(=O)NC(C)C)c(-c4ccccc4)c23)C1 [drawing 1055]
inhibition at 20 µM: 51 to 75%
--
molecule: Cc1c(-c2ccn(C)n2)sc2nc(-c3nccn3C)nc(NCCCS(C)(=O)=O)c12 [drawing 1051]
inhibition at 20 µM: 51 to 75%
--
molecule: COc1cccc(-c2sc3nc(-c4nccn4C)nc(N[C@H]4C[C@@H](OC)C4)c3c2-c2ccccc2)c1F [drawing 1026]
inhibition at 20 µM: 51 to 75%
--
molecule: Cc1cn(C)c(-c2nc(O)c3scc(-c4ccccn4)c3n2)n1 [drawing 942]
inhibition at 20 µM: 76 to 100%
--
molecule: COCCNc1nc(-c2cn(C)cn2)nc2sc(-c3ccccc3Cl)c(-c3ccc(OC)cc3)c12 [drawing 1008]
inhibition at 20 µM: 0%
--
molecule: COc1ccc(-c2c(-c3cccc(OC)c3F)sc3nc(-c4nccn4C)nc(N4CCC(OC)C4)c23)cc1 (centres unmarked) [drawing 941]
inhibition at 20 µM: 51 to 75%
--
molecule: COC1CCC(Nc2nc(-c3nccn3C)nc3sc(-c4cccc5[nH]ncc45)c(C)c23)C1 (centres unmarked) [drawing 1030]
inhibition at 20 µM: 51 to 75%
--
molecule: CO[C@H]1C[C@H](Nc2nc(-c3nccn3C)nc3sc(-c4ccn(C)n4)c(-c4ccccc4)c23)C1 [drawing 1041]
inhibition at 20 µM: 51 to 75%
--
molecule: CC(C)NC(=O)c1nc(-c2nccn2C)nc(O)c1O [drawing 965]
inhibition at 20 µM: 51 to 75%
--
molecule: COCCNc1nc(-c2cn(C)cn2)nc2sc(-c3cc(OC)ccc3Cl)c(-c3ccc(OC)cc3)c12 [drawing 930]
inhibition at 20 µM: 51 to 75%
--
molecule: COC1CCN(c2nc(-c3nccn3C)nc3sc(-c4ccnn4C)c(-c4ccccc4)c23)C1 (centres unmarked) [drawing 972]
inhibition at 20 µM: 51 to 75%
--
molecule: COCCc1ccc(Oc2nc(-c3ccccn3)nc(O)c2OC)cc1 [drawing 949]
inhibition at 20 µM: 76 to 100%
